Reference source: paper PMC13147315

assayed-target: N_CTD (SARS-CoV-2 (Wuhan), UniProt P0DTC9 247-364)
procedure-summary: MST
test-settings: protein: recombinant; tags: 6xHis; chain copies: 2; label: Cy5; blunt
pKd: −log10 of the molar value.
pKd overview
test-readout: pKd

>>> print(df.to_string())
                                     binder  test_readout  result_value
0  dsRNA22 (dsRNA) RNA 1: CAUAAUAAGAGGCUGGAUUUUUGGUA RNA 2: UACCAAAAAUCCAGCCUCUUAUUAUG           pKd          5.73
1  dsRNA20 (dsRNA) RNA 1: UUCGUCCGGGUGUGACCGAAAGGUAA RNA 2: UUACCUUUCGGUCACACCCGGACGAA           pKd          5.48
